Test: Primary qHTS Assay for Foot and Mouth Disease Virus Antivirals against NCGC Sytravon and CBC Compound Libraries: Renilla Luciferase Signal; note: nearly all actives have a fitted effect of over 55% in size
Settings: FMDV replicon cells; series mostly up to 57.5 µM
Among all 120,000 compounds or so, about 370 (0.31%) were called active. About 4% were inconclusive and are not listed. Calls come from the whole dose curve. This excerpt belongs to a sample that is enriched for actives.
Outcome codes: label 1 (active), label 0 (inactive)

compound | classLabel
Cc1cc(C)cc(Nc2nc(NCc3ccco3)nc3c2cnn3-c2ccccc2)c1 | label 0
COc1ccc(-c2csc3c2NC(=O)CC3c2ccc(OCC(N)=O)c(OC)c2)cc1 (stereo not given) | label 1
O=C(Nc1ccccc1)C1=C(Nc2ccc(F)cc2F)c2ccccc2S1(=O)=O | label 0
Cc1ccccc1NS(=O)(=O)c1ccc(C(=O)N(C)CC(=O)Nc2cccc3ccccc23)cc1 | label 0
CC1(C)CC(=O)C2=C(C1)N(Cc1ccccc1)C(CCC1CCCCC1)=NC2(C(F)(F)F)C(F)(F)F | label 0
C[C@@H](C(=O)N1CCN(c2ccccc2)CC1)n1cnc2ccccc2c1=O | label 0
O=C(CN1CCCC(C(F)(F)F)C1)Nc1cccc2ncccc12 (stereo not given) | label 0
Cc1ccc(-c2csc3c2NC(=O)CC3c2ccc(C)cc2)cc1 (stereo not given) | label 0
Cc1ccc(C(=O)O)cc1S(N)(=O)=O | label 0
Cc1sc2nc(SCc3ccc(Cl)cc3)n(CCCN3CCOCC3)c(=O)c2c1C | label 0

* * *

Experiment: Primary qHTS Assay for Foot and Mouth Disease Virus Antivirals against NCGC Sytravon and CBC Compound Libraries: Renilla Luciferase Signal; note: nearly all actives have a fitted effect of over 55% in size
Conditions: FMDV replicon cells; series mostly up to 57.5 µM
Out of some 120,000 compounds screened, about 370 (0.31%) were called active. Roughly 4% stayed inconclusive and do not appear here. The call rests on the fitted dose curve. This is one part of a sample in which actives are shown more often than they occur.
Outcome codes: True for active, False for inactive

molecule | classLabel
O=C(NCc1ccc2c(c1)CCN2C(=O)c1ccccc1)c1ccccc1 | False
O=C(O)c1ccc2c(c1)N(Cc1ccc(F)cc1)C(=O)c1ccccc1S2=O (stereo not drawn) | True
Cc1ccc(CNC(=O)c2scnc2C)cn1 | False
O=C(NCCOc1ccccc1F)c1n[nH]c(=O)c2ccccc12 | False
COc1ccc(NC(C)=O)cc1NC(=O)/C=C/c1nc2ccccc2o1 | False
O=C(NCc1ccc2c(c1)CCN2C(=O)c1ccccc1)Nc1cc(F)ccc1F | True
Cc1ccc(S(C)(=O)=O)cc1NCc1ccccc1F | False
CN(C)C(CNC(=O)Cc1n[nH]c(=O)c2ccccc12)Cc1ccccc1 (stereo not drawn) | False
CCOc1ccccc1NC(=O)N1CCC2(CC1)c1cccn1-c1ccc(C)cc1N2CC | False
CCCOc1ccc(NC(=O)COc2cccc(C)c2C)c2cccnc12 | False
CCc1ccc(/C=C(\C#N)C(=O)NC2CC2)s1 | False
Cc1ncsc1C(=O)NCc1ccc(N2CCCCCC2)nc1 | True
COc1ccc(C(=O)/C(=C/c2ccncc2)c2nc3ccccc3o2)cc1OC | True
Cc1cnc(NC(=O)c2nc(C)n(-c3ccc(F)cc3)n2)s1 | False
COc1ccc(OC)c(CNC(=O)c2scnc2C)c1 | False
CC(/C=N/NC(=O)c1ccc(C)cc1)=C\c1ccccc1 | False
O=C(CC1(O)C(=O)N(CN2CCOCC2)c2ccccc21)c1ccc2ccccc2c1 (stereo not drawn) | False
FC(F)(F)c1ccccc1C(c1ccccc1)N1CCCNCC1 (stereo not drawn) | False
COc1c(C)cccc1C(=O)Nc1cccc2ncccc12 | False
O=C(COc1ccccc1)NCc1ccc2c(c1)CCN2C(=O)c1ccc(F)cc1 | False
Cc1nc(-c2ccc(F)cc2)sc1C(=O)N[C@H](C(=O)O)C(C)C | False
Cc1[nH]c2ccccc2c1C(C(=O)O)N1CCN(Cc2ccccn2)CC1 (stereo not drawn) | False
CC(NCc1cccs1)C12CC3CC(CC(C3)C1)C2 (stereo not drawn) | False
